Test system: NCI-H1734
Test: relative viability (nuclei count vs DMSO), 5 days (fraction); higher = more cells survive
Details: first compound 0.1 µM
Decide using relative viability alone. Strictly below 0.8: criterion met. Equal to or above 0.8: criterion not met.

Use these answered entries as a reference point.
O=c1cc(N2CCOCC2)oc2c(-c3cccc4c3sc3ccccc34)cccc12 + Cc1nc(Nc2ncc(C(=O)Nc3c(C)cccc3Cl)s2)cc(N2CCN(CCO)CC2)n1 [Dasatinib] (partner 0.075 µM) :: criterion met
O=c1cc(N2CCOCC2)oc2c(-c3cccc4c3sc3ccccc34)cccc12 + Cc1nc(NC(=O)N2CCC[C@H]2C(N)=O)sc1-c1ccnc(C(C)(C)C(F)(F)F)c1 [Alpelisib] (partner 2 µM) :: criterion met
O=c1cc(N2CCOCC2)oc2c(-c3cccc4c3sc3ccccc34)cccc12 + Nc1nc2[nH]cc(CCc3ccc(C(=O)N[C@@H](CCC(=O)O)C(=O)O)cc3)c2c(=O)[nH]1 [Pemetrexed] (partner 0.2 µM) :: criterion met
CCN(CC)CCCCNc1ncc2cc(-c3cc(OC)cc(OC)c3)c(NC(=O)NC(C)(C)C)nc2n1 + C[C@]1(O)C[C@@H](c2nc(-c3ccc4ccc(-c5ccccc5)nc4c3)c3c(N)nccn32)C1 [Linsitinib] (partner 1 µM) :: criterion not met
O=c1cc(N2CCOCC2)oc2c(-c3cccc4c3sc3ccccc34)cccc12 + Cc1cc(Nc2cc(N3CCN(C)CC3)nc(Sc3ccc(NC(=O)C4CC4)cc3)n2)n[nH]1 [Tozasertib] (partner 0.1 µM) :: criterion met

Would you kindly verify if relative viability of O=c1cc(N2CCOCC2)oc2c(-c3cccc4c3sc3ccccc34)cccc12 + O=C(CCCCCCC(=O)Nc1ccccc1)NO [Vorinostat] (partner 1 µM) is strictly less than 0.8?
criterion met

###

Tested on: LXF-289
Experiment: relative viability (nuclei count vs DMSO), 5 days (fraction); higher = more cells survive
Settings: first compound 0.2 µM
PROPERTY MEASURED: relative viability
Write the value as a bare number.

Some compounds with recorded relative viability:
COCC1(CO)C(=O)C2CCN1CC2 (centres undefined) [PRIMA-1MET] + Cc1nc(Nc2ncc(C(=O)Nc3c(C)cccc3Cl)s2)cc(N2CCN(CCO)CC2)n1 [Dasatinib] (partner 0.075 µM) :: 0.277
COCC1(CO)C(=O)C2CCN1CC2 (centres undefined) [PRIMA-1MET] + N=C(N)NC(=N)NCCc1ccccc1 [Phenformin] (partner 250 µM) :: 0.491
COCC1(CO)C(=O)C2CCN1CC2 (centres undefined) [PRIMA-1MET] + Cc1cc(Nc2cc(N3CCN(C)CC3)nc(Sc3ccc(NC(=O)C4CC4)cc3)n2)n[nH]1 [Tozasertib] (partner 0.1 µM) :: 0.217

// fetch relative viability; item: COCC1(CO)C(=O)C2CCN1CC2 (centres undefined) [PRIMA-1MET] + NC(=O)Nc1cc(-c2cccc(F)c2)sc1C(=O)N[C@H]1CCCNC1 [AZD7762] (partner 0.2 µM) ; system: LXF-289
1.15

###

Test system: NCI-H650
Experiment: relative viability (nuclei count vs DMSO), 5 days (fraction); higher = more cells survive
Conditions: first compound 0.03162 µM
PROPERTY MEASURED: relative viability
Write the value as a bare number.

O=c1cc(N2CCOCC2)oc2c(-c3cccc4c3sc3ccccc34)cccc12 + Cc1nc(NC(=O)N2CCC[C@H]2C(N)=O)sc1-c1ccnc(C(C)(C)C(F)(F)F)c1 [Alpelisib] (partner 2 µM) :: 1.15
CCN(CC)CCCCNc1ncc2cc(-c3cc(OC)cc(OC)c3)c(NC(=O)NC(C)(C)C)nc2n1 + O=C(c1cc(Cc2n[nH]c(=O)c3ccccc23)ccc1F)N1CCN(C(=O)C2CC2)CC1 [Olaparib] (partner 8 µM) :: 0.408
CCN(CC)CCCCNc1ncc2cc(-c3cc(OC)cc(OC)c3)c(NC(=O)NC(C)(C)C)nc2n1 + NC(=O)Nc1cc(-c2cccc(F)c2)sc1C(=O)N[C@H]1CCCNC1 [AZD7762] (partner 0.2 µM) :: 0.944

Please report the measured relative viability for CCN(CC)CCCCNc1ncc2cc(-c3cc(OC)cc(OC)c3)c(NC(=O)NC(C)(C)C)nc2n1 + COc1cc2c(Oc3ccc(NC(=O)C4(C(=O)Nc5ccc(F)cc5)CC4)cc3F)ccnc2cc1OCCCN1CCOCC1 [Foretinib] (partner 0.25 µM)
0.992

Please report the measured relative viability for O=c1cc(N2CCOCC2)oc2c(-c3cccc4c3sc3ccccc34)cccc12 + Nc1nc2[nH]cc(CCc3ccc(C(=O)N[C@@H](CCC(=O)O)C(=O)O)cc3)c2c(=O)[nH]1 [Pemetrexed] (partner 0.2 µM)
1.08

Please report the measured relative viability for O=c1cc(N2CCOCC2)oc2c(-c3cccc4c3sc3ccccc34)cccc12 + Cc1nc(Nc2ncc(C(=O)Nc3c(C)cccc3Cl)s2)cc(N2CCN(CCO)CC2)n1 [Dasatinib] (partner 0.075 µM)
0.493

Please report the measured relative viability for O=c1cc(N2CCOCC2)oc2c(-c3cccc4c3sc3ccccc34)cccc12 + CC(=O)Nc1cccc(-n2c(=O)n(C3CC3)c(=O)c3c(Nc4ccc(I)cc4F)n(C)c(=O)c(C)c32)c1 [Trametinib] (partner 0.02 µM)
1.1

Please report the measured relative viability for O=c1cc(N2CCOCC2)oc2c(-c3cccc4c3sc3ccccc34)cccc12 + COc1cccc2cc(-c3nc([C@H]4CC[C@H](C(=O)O)CC4)n4ncnc(N)c34)[nH]c12 [OSI-027] (partner 0.5 µM)
0.591

Please report the measured relative viability for CCN(CC)CCCCNc1ncc2cc(-c3cc(OC)cc(OC)c3)c(NC(=O)NC(C)(C)C)nc2n1 + O=C(CCCCCCC(=O)Nc1ccccc1)NO [Vorinostat] (partner 1 µM)
0.433

###

System: HCC-366
Assay: relative viability (nuclei count vs DMSO), 5 days (fraction); higher = more cells survive
Conditions: first compound 0.253 µM
relative viability listing for selected compounds.
Write the value as a bare number.

Some compounds with recorded relative viability:
COc1nc(C)cnc1NS(=O)(=O)c1cccnc1-c1ccc(-c2nnco2)cc1 [Zibotentan] + CC1(C)CCC(c2ccc(Cl)cc2)=C(CN2CCN(c3ccc(C(=O)NS(=O)(=O)c4ccc(N[C@H](CCN5CCOCC5)CSc5ccccc5)c(S(=O)(=O)C(F)(F)F)c4)cc3)CC2)C1 [Navitoclax] (partner 0.5 µM) :: 1.14
O=c1cc(-c2cccc3c2Sc2ccccc2S3)oc(N2CCOCC2)c1 + CC1(C)CCC(c2ccc(Cl)cc2)=C(CN2CCN(c3ccc(C(=O)NS(=O)(=O)c4ccc(N[C@H](CCN5CCOCC5)CSc5ccccc5)c(S(=O)(=O)C(F)(F)F)c4)cc3)CC2)C1 [Navitoclax] (partner 0.5 µM) :: 1.19
COc1nc(C)cnc1NS(=O)(=O)c1cccnc1-c1ccc(-c2nnco2)cc1 [Zibotentan] + Cc1cc(Nc2cc(N3CCN(C)CC3)nc(Sc3ccc(NC(=O)C4CC4)cc3)n2)n[nH]1 [Tozasertib] (partner 0.1 µM) :: 0.0914

Next compound, please.
// fetch relative viability; item: O=c1cc(-c2cccc3c2Sc2ccccc2S3)oc(N2CCOCC2)c1 + O=C(CCCCCCC(=O)Nc1ccccc1)NO [Vorinostat] (partner 1 µM) ; system: HCC-366
0.387

###

relative viability listing for selected compounds.
Tested on: RERF-LC-KJ
Experiment: relative viability (nuclei count vs DMSO), 5 days (fraction); higher = more cells survive
Settings: first compound 0.1 µM
Write the value as a bare number.

Some compounds with recorded relative viability:
O=c1cc(N2CCOCC2)oc2c(-c3cccc4c3sc3ccccc34)cccc12 + COc1cccc2cc(-c3nc([C@H]4CC[C@H](C(=O)O)CC4)n4ncnc(N)c34)[nH]c12 [OSI-027] (partner 0.5 µM) :: 0.6
CCN(CC)CCCCNc1ncc2cc(-c3cc(OC)cc(OC)c3)c(NC(=O)NC(C)(C)C)nc2n1 + CC(=O)c1c(C)c2cnc(Nc3ccc(N4CCNCC4)cn3)nc2n(C2CCCC2)c1=O [Palbociclib] (partner 0.5 µM) :: 1.2
O=c1cc(N2CCOCC2)oc2c(-c3cccc4c3sc3ccccc34)cccc12 + CS(=O)(=O)CCNCc1ccc(-c2ccc3ncnc(Nc4ccc(OCc5cccc(F)c5)c(Cl)c4)c3c2)o1 [Lapatinib] (partner 2 µM) :: 0.906
CCN(CC)CCCCNc1ncc2cc(-c3cc(OC)cc(OC)c3)c(NC(=O)NC(C)(C)C)nc2n1 + CC(=O)Nc1cccc(-n2c(=O)n(C3CC3)c(=O)c3c(Nc4ccc(I)cc4F)n(C)c(=O)c(C)c32)c1 [Trametinib] (partner 0.02 µM) :: 0.94

Next compound, please.
Please report the measured relative viability for O=c1cc(N2CCOCC2)oc2c(-c3cccc4c3sc3ccccc34)cccc12 + Nc1nc2[nH]cc(CCc3ccc(C(=O)N[C@@H](CCC(=O)O)C(=O)O)cc3)c2c(=O)[nH]1 [Pemetrexed] (partner 0.2 µM)
0.492

FYI, the data here is from the supplement of paper PMC10307832.
